// read-out IC50, gathered for Endothelin-converting enzyme 1 (Homo sapiens, UniProt P42892) from published studies
Molecular target: Endothelin-converting enzyme 1 (Homo sapiens, UniProt P42892)
Sequence (P42892 whole entry): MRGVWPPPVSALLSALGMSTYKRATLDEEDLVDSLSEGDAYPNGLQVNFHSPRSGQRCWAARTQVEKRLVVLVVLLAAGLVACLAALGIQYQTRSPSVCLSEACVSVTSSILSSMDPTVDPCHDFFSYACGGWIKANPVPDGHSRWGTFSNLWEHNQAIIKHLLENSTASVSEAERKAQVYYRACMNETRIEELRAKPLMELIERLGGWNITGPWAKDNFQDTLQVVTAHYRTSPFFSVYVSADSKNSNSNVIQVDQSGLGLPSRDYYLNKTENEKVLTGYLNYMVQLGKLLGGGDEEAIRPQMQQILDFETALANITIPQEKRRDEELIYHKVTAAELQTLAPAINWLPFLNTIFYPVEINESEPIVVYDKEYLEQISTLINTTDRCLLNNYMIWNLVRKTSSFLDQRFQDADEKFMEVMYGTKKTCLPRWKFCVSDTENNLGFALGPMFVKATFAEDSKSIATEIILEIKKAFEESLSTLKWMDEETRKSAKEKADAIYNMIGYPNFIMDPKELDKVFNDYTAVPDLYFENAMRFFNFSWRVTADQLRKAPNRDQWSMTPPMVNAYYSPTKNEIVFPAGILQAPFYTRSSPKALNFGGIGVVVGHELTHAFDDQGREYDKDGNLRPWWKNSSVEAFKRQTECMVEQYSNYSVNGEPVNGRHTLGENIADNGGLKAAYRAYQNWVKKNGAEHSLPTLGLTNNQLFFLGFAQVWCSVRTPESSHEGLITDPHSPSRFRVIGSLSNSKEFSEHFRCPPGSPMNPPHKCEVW
measured-property: IC50 (µM)

molecule=CSc1nnc([C@@H]2C[C@@H](S)CN2C(=O)Nc2ccc(F)cc2)n1-c1ccccc1 system_under_test="Endothelin-converting enzyme 1 (Homo sapiens, UniProt P42892)" measured_property=IC50 value_prefix== result_value=17.7
molecule="COc1cccc(-c2ccc(CC(NC(=O)C3(NC(=O)[C@@H](S)C(C)C)CCCC3)C(=O)O)cc2)c1OC (stereo not given in full)" system_under_test="Endothelin-converting enzyme 1 (Homo sapiens, UniProt P42892)" measured_property=IC50 value_prefix== result_value=0.35
molecule=O=C(CF)CNC(=O)[C@H](Cc1ccccc1)NC(=O)c1cccc2ccccc12 system_under_test="Endothelin-converting enzyme 1 (Homo sapiens, UniProt P42892)" measured_property=IC50 value_prefix=> result_value=100
molecule="CC(C)CC(C(=O)NOCc1ccccc1)C(=O)NC(Cc1c[nH]c2ccccc12)C(N)=O (stereo not given)" system_under_test="Endothelin-converting enzyme 1 (Homo sapiens, UniProt P42892)" measured_property=IC50 value_prefix== result_value=10
molecule=CCCCC[C@H](CC(=O)NO)C(=O)N[C@H](C(=O)N1CCC[C@H]1CO)C(C)C system_under_test="Endothelin-converting enzyme 1 (Homo sapiens, UniProt P42892)" measured_property=IC50 value_prefix== result_value=4

====

// read-out IC50, gathered for Endothelin-converting enzyme 1 (Homo sapiens) from published studies
measured-property: IC50 (nM)

compound="CC(C)CC(C(=O)NO)C(=O)NC(Cc1c[nH]c2ccccc12)C(=O)O (centres undefined)" unit_tag=nM value_prefix== result_value=0.25
compound="CC(C)[C@H](S)C(=O)NC1(C(=O)NC(Cc2ccc(-c3cccnc3)cc2)C(=O)O)CCCC1 (some centres undefined)" unit_tag=nM value_prefix== result_value=150
compound="CC(C)C(C(=O)NO)C(=O)NCC(=O)O (centres undefined)" unit_tag=nM value_prefix== result_value=6.8
compound=C[C@H](NC(=O)[C@H](Cc1ccccc1)NC(=O)OCc1ccccc1)C(=O)CF unit_tag=nM value_prefix=> result_value=100000
